B1: TPR t1 (parent)
chain: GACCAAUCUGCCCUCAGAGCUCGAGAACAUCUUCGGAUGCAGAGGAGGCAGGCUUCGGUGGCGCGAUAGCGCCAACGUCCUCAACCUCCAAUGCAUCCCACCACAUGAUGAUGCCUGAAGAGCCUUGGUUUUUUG

# Variants of: B1
# Test Protocol: polymerase ribozyme fitness, log enrichment relative to wild type (log ratio); higher = more active; in vitro selection for triplet polymerase activity
polymerase ribozyme fitness (log ratio) vs -3: at or above is class 1, below is class 0.

>  <Sequence Record>
GACCAAUCUGCCCUCAGAGCUCGAGAACAUCUUCGGAUGCAGAGUAGGCAGGCUUCGGUGGCGCGAUAGCGCCAACGUCCUCAACCUCCAAUGCAUCCCAAUACAUGAUGAUGCCUGAAGAGCCUUGGUUUUUUG

>  <Group>
class 0

$$$$
>  <Sequence Record>
GACGAAGCUGCCCUCAGAGCUCGAGAACAUCUUCGGAUGCAGAGGAGGCAGGCUACGGUGGCGCGAUAGCGCCAACGUCCUCAACCUCCAAUGCAUCCUACCACAUGAUGAGGCCUGAAGAGCCUUGGUUUCUUG

>  <Group>
class 0

$$$$
>  <Sequence Record>
GACCAAUCUGCCCUCAGAGCUCGAGAACAUCUUCGGAUGCAGAGGAGGCAGGCUUCGGUGGCGCGAUAGCGGCAACGUCCUCAACCUACAAUGUAUCCCACCACAUGAUGAUGCCUGAACAGCCUUGGUUUUUUG

>  <Group>
class 1

$$$$
>  <Sequence Record>
GACCAAUCUGCCCUCAGUGCUCGAGAACAUCUUCGGAUGUAGAGGCGGCAGGCUUCGGUGGCGCGAUAGCGCCAACGUCCUAAACAUCCAAUGCAUCCCACCACAUGAUGAUGCCUGAAGAGCGUUGGUUUUUUG

>  <Group>
class 0

$$$$
>  <Sequence Record>
GACCAAUCUGCCCUCAGAGCUCGAGAACAUCUUCGGAUGCAGAGGAGGCAGGCUUCGGUGGCGCGAUAGCGCCAACGUCAUCAACGUCCAAUGCAUCCCACCACAUGAUGAUGCCUGAAGAGCCUUGGUUUUUUG

>  <Group>
class 0

$$$$
>  <Sequence Record>
GAACAAUCUGCCCUCAGAGCUCGAGAACAUCUUCGGAUGCAGAUGAGGCAGGCUUCGGUGGCGCGAUAGCGCCAACGUCCUCAACCUCCAAUGCAUCCCACCACAUGAUGAUGCCUGAAGAGCCUUGGUUUUUUG

>  <Group>
class 0

$$$$
>  <Sequence Record>
GACCAAUCUGCCCUCAGAGCUCGAGAAGAUCUUCGGAUGCAGAGGAGACAGGCUUCGGUGGCGCGAUAGCGCCAACGUCCUCCCCCUCCAAUGCAUCCCACCACAUGAUGAUGCCUGAAGAGCCUUGGUUUUUUG

>  <Group>
class 0

$$$$
>  <Sequence Record>
GACCAAUCUGCCCUCAGAGCUCGAGAACAUCUUCGGAUGCAAAGGAGGCAGGCUUCGGUGGCGCGAUAGCGCCAACGUCCUCAAACUCCAAUGGAUCCCACCACAUGAUGAUACCUGAAGAGCCUUGGUUUUUUG

>  <Group>
class 0

$$$$
>  <Sequence Record>
GACCAAUCUGCCCUCAGAGCUCGAGAACAUCUUCGGAUGCAGAGGAGGCAGGCUUCGGUGGCGCGAUAGCGCCAACGUCCUCAACCUCCAAUGCAUCCCACCACAUGAUGAUGCCUCAAGAGCCUUGGAUUUUUG

>  <Group>
class 0

$$$$
>  <Sequence Record>
GACCAAUCUGCCCUCAGAGCUCGAGAACAUCUUCGGAUGCAGAGGAGGCAGGUUUCGGUGGCGCGAUAUCGCCAACGUCCUCAACCUCCAAUGCAUCCCACCACAUGAUGAUGCCUGAAGAGCCUUGGUUUUUUG

>  <Group>
class 1

$$$$
>  <Sequence Record>
GACCAAUCUGCCCUCAGAGCUCGAGAUCAUCUUCGGAUCCAGAGGAGGCAGGCUUCGGUGGCGCGAUAGCGCCAACGUCCUCAACCUCCAAUGCAUCCCACCACAUGAUGAUGCCUGAAUAGCCUUGGUUUUUUG

>  <Group>
class 1

$$$$
>  <Sequence Record>
GACCAAUCUGCCCUCAGAGCUCCAGAACCUCUUCGGAUGCAGAGGAGCCAGGCUUCGGUGGCGCGAUAGCGCCAACGUCCUCAACCUCCAAUGCAUCCCACCACAGGAUGAUGUCUGAAGAGCCUUGGUUUUUUG

>  <Group>
class 0

$$$$
>  <Sequence Record>
GACCAAUCUGCCCUCAGAGCUCGAGAACAUCUUCGGAUGCAGAGGAGGCAGGCUUCGGUGGCGCGAUAGCGCCAACGUCCUCAACCUCCAAUGCAUCCCACCACAUGAUGAUAACUGAAGAGCCAUGGUUUUAUG

>  <Group>
class 0

$$$$
>  <Sequence Record>
GACCAAUCUGCCCUCAGAGCUCGAGAACAUCUUCGGAUGCAGAUGAAGCAGGCUUCGGUGGCCCGAUAGCGCCAACGUCCUCAACCUCCAAUGCAUCCCACCACAUGAUGAUGCCUGAAUAGCCUUGGUGUUUUG

>  <Group>
class 0

$$$$
>  <Sequence Record>
GACCAUUCUGCCCUCAGAGCUCGAGAACACCUUCGGAUGCAGAGGAGGCAGGCUUCGGUGGCGCGAUAGCGCCAACGUCCUCAACCUCCAAUUCAUCCCACCACAUGAUGAUGCCUGAAUAGCCUUGGUUUUUUG

>  <Group>
class 0

$$$$
